assay: in vitro; conditions: human
metric: EC50 at 72 h

Item C/C1=C\[C@H](C)C[C@H](C)OC(=O)C[C@H](c2ccc(O)cc2)NC(=O)[C@@H](Cc2c(Br)[nH]c3ccccc23)N(C)C(=O)[C@H](C)NC(=O)[C@@H](C)C1 [jasplakinolide_np (1), jasplakinolide] has what recorded EC50 at 72 h?
~30 nM
